protocolDescription: Permeability of the compound from apical to basolateral side in human Caco2 cells
Type: ADME, cell-based
setupConditions: Caco-2, read-out: permeability
Please respond with reported Papp A→B for every item in the list.

# input If you can, please state the reported Papp A→B value of COC(=O)Nc1ccc2c(c1)NC(=O)CC/C=C/C[C@H](NC(=O)c1c(F)cc(C)cc1F)c1nc-2c(Cl)[nH]1 .
# output < 1.5 ×10⁻⁶ cm/s

# input Need Papp A→B, item COC(=O)Nc1ccc2c(c1)NC(=O)C[C@@H](C)/C=C/C[C@H](NC(=O)c1c(F)cc(C)cc1F)c1nc-2c(Cl)[nH]1
# output < 1.5 ×10⁻⁶ cm/s

# input Please give the measured Papp A→B for this compound: COC(=O)Nc1ccc2c(c1)NC(=O)[C@H](C)CCC[C@H](NC(=O)c1c(F)cc(C)cc1F)c1nc-2c(Cl)[nH]1
# output < 1.5 ×10⁻⁶ cm/s

# input # Papp A→B lookup, item COC(=O)Nc1ccc2c(c1)NC(=O)C[C@@H](C)CCC[C@H](NC(=O)c1c(F)cc(C)cc1F)c1nc-2c(Cl)[nH]1
# output 1.8 ×10⁻⁶ cm/s

# input Would you kindly share the measured Papp A→B for COC(=O)Nc1ccc2c(c1)NC(=O)CC/C=C/C[C@H](NC(=O)/C=C/c1cc(Cl)ccc1-n1cnnn1)c1nc-2c(Cl)[nH]1 ?
# output < 1.5 ×10⁻⁶ cm/s

---

protocolDescription: Volume of distribution at steady state in Sprague-Dawley rat at 0.55 mg/kg, iv or 1.09 mg/kg, po administered as cassette dose by LC-MS/MS analysis
Assay type: ADME, organism-based
setupConditions: in vivo, read-out: Vdss
recordedMetric: Vd (L/kg)
Hi! Could you send only the number? It should be in L/kg, unit omitted.

# input Report Vd for COC(=O)Nc1ccc2c(c1)NC(=O)CC/C=C/C[C@H](NC(=O)/C=C/c1cc(Cl)ccc1-n1cnnn1)c1nc-2c(Cl)[nH]1 please.
# output 0.4

---

experimentalSystem: Coagulation factor XI (Homo sapiens, UniProt P03951)
Sequence (P03951 19-387 limits assumed): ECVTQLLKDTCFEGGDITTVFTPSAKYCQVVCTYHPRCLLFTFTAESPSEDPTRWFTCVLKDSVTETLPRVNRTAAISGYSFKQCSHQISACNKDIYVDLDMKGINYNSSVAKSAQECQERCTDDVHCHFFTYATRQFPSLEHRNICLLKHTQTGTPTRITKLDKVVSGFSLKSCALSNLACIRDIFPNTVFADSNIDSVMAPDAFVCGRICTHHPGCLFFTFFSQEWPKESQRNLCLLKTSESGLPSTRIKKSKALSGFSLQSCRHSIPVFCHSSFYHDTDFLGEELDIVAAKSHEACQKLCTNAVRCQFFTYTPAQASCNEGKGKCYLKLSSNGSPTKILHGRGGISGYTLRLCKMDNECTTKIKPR
Sequence (P03951 388-625 limits assumed): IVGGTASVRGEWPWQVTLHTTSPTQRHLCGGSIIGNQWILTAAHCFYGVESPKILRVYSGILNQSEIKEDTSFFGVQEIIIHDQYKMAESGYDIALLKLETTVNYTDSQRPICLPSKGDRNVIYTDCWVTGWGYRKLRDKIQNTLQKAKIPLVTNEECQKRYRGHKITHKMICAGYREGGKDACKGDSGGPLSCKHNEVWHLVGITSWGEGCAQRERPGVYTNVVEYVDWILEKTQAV
Exercise: for every item that follows, state its recorded Ki.
Express your answer as a number followed by its unit.

# input Recorded Ki of COC(=O)Nc1ccc2c(c1)NC(=O)[C@H](C(C)C)CCC[C@H](NC(=O)/C=C/c1cc(Cl)ccc1-n1cnnn1)c1nc-2c[nH]1 , please.
# output 140 pM

# input # query: Ki of entry COC(=O)Nc1ccc2c(c1)NC(=O)C[C@@H](C)/C=C/C[C@H](NC(=O)/C=C/c1cc(Cl)ccc1-n1cnnn1)c1nc-2c[nH]1
# output 130 pM

# input Consider the compound COC(=O)Nc1ccc2c(c1)NC(=O)C(C)CCCC[C@H](NC(=O)/C=C/c1cc(Cl)ccc1-n1cnnn1)c1nc-2c[nH]1 (single isomer, unassigned; diastereomer B) and give its measured Ki.
# output 31000 pM

---

protocolDescription: Clearance in Sprague-Dawley rat at 0.55 mg/kg, iv or 1.09 mg/kg, po administered as cassette dose by LC-MS/MS analysis
Format: ADME, organism-based
setupConditions: in vivo
recordedMetric: clearance (mL/min/kg)
Give the value, in units of mL/min/kg, as a plain number.

# input What does the data say about its clearance? Entry: COC(=O)Nc1ccc2c(c1)NC(=O)CC/C=C/C[C@H](NC(=O)/C=C/c1cc(Cl)ccc1-n1cnnn1)c1nc-2c(Cl)[nH]1
# output 24

Ref: ChEMBL document CHEMBL4052741
